Data credit: ChEMBL document CHEMBL3286351

System: Escherichia coli
Assay Info: Antibacterial activity against Escherichia coli MTCC 723 assessed as growth inhibition after 18 hrs by CLSI microdilution broth assay
Type: functional
Reported Conditions: MTCC 723, 18 h
Where a SMILES comes first, the peptide text is derived from it. [ ]: non-standard residue; d: D form. 3Abz = Nc1cccc(C(=O)O)c1; Orn = NCCC[CH](N)C(=O)O
Examples of compounds with documented MIC follow.

| Compound | MIC |
| --- | --- |
| N=C(N)NCCCC(N)C(=O)NC(CCCNC(=N)N)C(=O)NC(Cc1c[nH]c2ccccc12)C(=O)NC(Cc1c[nH]c2ccccc12)C(=O)NC(CCCNC(=N)N)C(N)=O (centres undefined) (H-RRWWR-NH2; configuration not given here) | 75 µg/mL |
| NCCCC(N)C(=O)NC(CCCN)C(=O)NC(Cc1c[nH]c2ccccc12)C(=O)Nc1cccc(C(=O)NC(Cc2c[nH]c3ccccc23)C(=O)NC(CCCN)C(N)=O)c1 (centres undefined) (H-[Orn][Orn]W[3Abz]W[Orn]-NH2; configuration not given here) | 40 µg/mL |
| N=C(N)NCCCC(NC(=O)C(CCCNC(=N)N)NC(=O)c1cccc(NC(=O)C(Cc2c[nH]c3ccccc23)NC(=O)C(CCCNC(=N)N)NC(=O)C(N)Cc2c[nH]c3ccccc23)c1)C(N)=O (centres undefined) (H-WRW[3Abz]RR-NH2; configuration not given here) | 60 µg/mL |
| NCCCC(N)C(=O)NC(CCCN)C(=O)NC(Cc1c[nH]c2ccccc12)C(=O)NC(Cc1c[nH]c2ccccc12)C(=O)NC(CCCN)C(N)=O (centres undefined) (H-[Orn][Orn]WW[Orn]-NH2; configuration not given here) | 120 µg/mL |
| NCCCC(N)C(=O)NC(Cc1c[nH]c2ccccc12)C(=O)NC(Cc1c[nH]c2ccccc12)C(=O)Nc1cccc(C(=O)NC(CCCN)C(=O)NC(CCCN)C(N)=O)c1 (centres undefined) (H-[Orn]WW[3Abz][Orn][Orn]-NH2; configuration not given here) | 100 µg/mL |
| N=C(N)NCCCC(N)C(=O)NC(Cc1c[nH]c2ccccc12)C(=O)Nc1cccc(C(=O)NC(CCCNC(=N)N)C(N)=O)c1 (centres undefined) (H-RW[3Abz]R-NH2; configuration not given here) | 70 µg/mL |
| N=C(N)NCCCC(NC(=O)C(Cc1c[nH]c2ccccc12)NC(=O)c1cccc(NC(=O)C(CCCNC(=N)N)NC(=O)C(N)Cc2c[nH]c3ccccc23)c1)C(N)=O (centres undefined) (H-WR[3Abz]WR-NH2; configuration not given here) | 150 µg/mL |
| NCCCC(NC(=O)C(Cc1c[nH]c2ccccc12)NC(=O)C(Cc1c[nH]c2ccccc12)NC(=O)C(CCCN)NC(=O)C(N)Cc1c[nH]c2ccccc12)C(N)=O (centres undefined) (H-W[Orn]WW[Orn]-NH2; configuration not given here) | 70 µg/mL |
| NCCCC(NC(=O)C(Cc1c[nH]c2ccccc12)NC(=O)c1cccc(NC(=O)C(CCCN)NC(=O)C(CCCN)NC(=O)C(N)Cc2c[nH]c3ccccc23)c1)C(N)=O (centres undefined) (H-W[Orn][Orn][3Abz]W[Orn]-NH2; configuration not given here) | 75 µg/mL |

###

This section presents molecules with their documented MIC values.
System: Pseudomonas aeruginosa
Assay Info: Antibacterial activity against Pseudomonas aeruginosa MTCC 2295 assessed as growth inhibition after 18 hrs by CLSI microdilution broth assay
Format: functional
Reported Conditions: MTCC 2295, 18 h
Where a SMILES comes first, the peptide text is derived from it. [ ]: non-standard residue; d: D form. 3Abz = Nc1cccc(C(=O)O)c1; Orn = NCCC[CH](N)C(=O)O
Attribute Measured: MIC (µg/mL)

| Molecule | Attribute Measured | Censor Symbol | Quantitative Readout |
| --- | --- | --- | --- |
| N=C(N)NCCCC(N)C(=O)NC(Cc1c[nH]c2ccccc12)C(=O)NC(CCCNC(=N)N)C(=O)Nc1cccc(C(=O)NC(Cc2c[nH]c3ccccc23)C(=O)NC(CCCNC(=N)N)C(N)=O)c1 (stereo unspecified) (H-RWR[3Abz]WR-NH2; configuration not given here) | MIC | = | 120 |
| N=C(N)NCCCC(NC(=O)C(Cc1ccccc1)NC(=O)c1cccc(NC(=O)C(Cc2ccccc2)NC(=O)C(CCCNC(=N)N)NC(=O)C(N)Cc2ccccc2)c1)C(N)=O (stereo unspecified) (H-FRF[3Abz]FR-NH2; configuration not given here) | MIC | > | 200 |
| N=C(N)NCCCC(N)C(=O)NC(Cc1c[nH]c2ccccc12)C(=O)Nc1cccc(C(=O)NC(Cc2c[nH]c3ccccc23)C(=O)NC(CCCNC(=N)N)C(N)=O)c1 (stereo unspecified) (H-RW[3Abz]WR-NH2; configuration not given here) | MIC | = | 50 |
| NCCCC(NC(=O)C(Cc1ccccc1)NC(=O)c1cccc(NC(=O)C(Cc2ccccc2)NC(=O)C(CCCN)NC(=O)C(N)Cc2ccccc2)c1)C(N)=O (stereo unspecified) (H-F[Orn]F[3Abz]F[Orn]-NH2; configuration not given here) | MIC | > | 200 |
| NCCCC(N)C(=O)NC(CCCN)C(=O)NC(Cc1ccccc1)C(=O)Nc1cccc(C(=O)NC(Cc2ccccc2)C(=O)NC(CCCN)C(N)=O)c1 (stereo unspecified) (H-[Orn][Orn]F[3Abz]F[Orn]-NH2; configuration not given here) | MIC | > | 200 |
| NCCCC(NC(=O)C(Cc1c[nH]c2ccccc12)NC(=O)c1cccc(NC(=O)C(CCCN)NC(=O)C(CCCN)NC(=O)C(N)Cc2c[nH]c3ccccc23)c1)C(N)=O (stereo unspecified) (H-W[Orn][Orn][3Abz]W[Orn]-NH2; configuration not given here) | MIC | = | 100 |
| N=C(N)NCCCC(NC(=O)C(CCCNC(=N)N)NC(=O)c1cccc(NC(=O)C(CCCNC(=N)N)NC(=O)C(Cc2c[nH]c3ccccc23)NC(=O)C(N)Cc2c[nH]c3ccccc23)c1)C(N)=O (stereo unspecified) (H-WWR[3Abz]RR-NH2; configuration not given here) | MIC | = | 100 |
| N=C(N)NCCCC(NC(=O)C(Cc1c[nH]c2ccccc12)NC(=O)c1cccc(NC(=O)C(CCCNC(=N)N)NC(=O)C(N)Cc2c[nH]c3ccccc23)c1)C(N)=O (stereo unspecified) (H-WR[3Abz]WR-NH2; configuration not given here) | MIC | = | 120 |
| N=C(N)NCCCC(N)C(=O)NC(Cc1c[nH]c2ccccc12)C(=O)Nc1cccc(C(=O)NC(CCCNC(=N)N)C(=O)NC(CCCNC(=N)N)C(N)=O)c1 (stereo unspecified) (H-RW[3Abz]RR-NH2; configuration not given here) | MIC | = | 75 |
| N=C(N)NCCCC(NC(=O)c1cccc(NC(=O)C(Cc2c[nH]c3ccccc23)NC(=O)C(N)Cc2c[nH]c3ccccc23)c1)C(N)=O (stereo unspecified) (H-WW[3Abz]R-NH2; configuration not given here) | MIC | = | 170 |
| N=C(N)NCCCC(NC(=O)C(Cc1c[nH]c2ccccc12)NC(=O)c1cccc(NC(=O)C(CCCNC(=N)N)NC(=O)C(CCCNC(=N)N)NC(=O)C(N)Cc2c[nH]c3ccccc23)c1)C(N)=O (stereo unspecified) (H-WRR[3Abz]WR-NH2; configuration not given here) | MIC | = | 50 |
